MEASUREMENT PROTOCOL: inhibitors of hydroxyurea-induced Chk1 phosphorylation, primary screen, imaging, HeLa, phospho-Chk1 nuclear intensity (AID 1187); note: test concentration not given here
CONDITION SET: hydroxyurea-induced phospho-Chk1 immunofluorescence imaging, higher = more signal
Entry class follows z-score: range 1 = under -0.2, range 2 = from -0.2 up to 0.3, range 3 = 0.3 and over

Where would O=C1O[C@@H](c2ccccc2)[C@@H](c2ccccc2)N2[C@@H](c3ccccc3OCCO)[C@]3(C(=O)Nc4ccc(C#CC5(O)CCCCCC5)cc43)[C@@H](C(=O)Nc3nc4ccccc4s3)[C@H]12 land among the classes by reported z-score? range 2

Where would C=C(CCCC)C(=O)CC[C@H](OC(=O)c1cccnc1)c1cccc(OCCO)c1 land among the classes by reported z-score? range 1

Where would Cc1cc(C)c(C(O)C2C=CC3C(=O)N(C)C(=O)C3N2Nc2ccccc2)c(C)c1 (stereo unspecified) land among the classes by reported z-score? range 2

Where would O=C1OCC=C[C@H]2OC34C=CCN(c5ccc(Cl)cc5)C(=O)[C@H]3N(CCCCCCO)C(=O)[C@@H]4[C@@H]12 (stereo partly specified) land among the classes by reported z-score? range 2

Where would COCCOC(=O)N1C(=O)[C@@]2(c3cc(C#CCNC(N)=O)ccc31)[C@H](c1ccc(O)cc1)N1[C@H](c3ccccc3)[C@H](c3ccccc3)OC(=O)[C@H]1[C@@H]2C(=O)NC[C@H](O)c1ccccc1 land among the classes by reported z-score? range 1

Where would COc1cccc(C(=O)O[C@H]2CC[C@]3(C)C4=C(CCC3C2(C)C)[C@]2(C)CC[C@H]([C@H](C)CCCC(C)C)[C@@]2(C)CC4)c1 (stereo partly specified) land among the classes by reported z-score? range 3

Where would CCOC(=O)C[C@H]1[C@H](OC(=O)c2ccc(-c3ccccc3)cc2)[C@@H](NC(=O)Cc2ccc(OC)cc2)c2cc(OCCCO)ccc2N1C(=O)c1ccc2ccccc2n1 land among the classes by reported z-score? range 2

Where would CC(C)(C)N1CC=CC23O[C@@H]4C=CCOC(=O)[C@@H]4[C@H]2C(=O)N(CCCCCO)[C@@H]3C1=O (stereo partly specified) land among the classes by reported z-score? range 1

Where would CO[C@H]1O[C@H](CO)[C@@H](OC(=O)Nc2ccc3c(c2)OCO3)[C@H](OC(=O)Nc2ccccc2)[C@H]1OC(=O)Nc1ccccc1 land among the classes by reported z-score? range 1

Where would C=CCOC(=O)[C@@H]1[C@H]2C(=O)O[C@H](c3ccccc3)[C@H](c3ccccc3)N2[C@H](c2ccc(OCCOC(=O)[C@@H]3C[C@@H]4C(=O)NCC(=O)N4[C@@H]3c3cccc(OCCO)c3)cc2)[C@@]12C(=O)Nc1ccc(I)cc12 land among the classes by reported z-score? range 3

Where would COCCOC(=O)N1C(=O)[C@@]2(c3ccccc31)[C@H](C(=O)Nc1nc3ccccc3s1)[C@H]1C(=O)O[C@H](c3ccccc3)[C@H](c3ccccc3)N1[C@@H]2c1ccc(OCCO)cc1 land among the classes by reported z-score? range 1

Where would CC(C)C(O)C1C=CC2C(=O)N(c3ccccc3)C(=O)C2N1Nc1ccc(C#N)cc1 (stereo unspecified) land among the classes by reported z-score? range 1

Where would Cc1ccc(S[C@]2(C(=O)NCC(C)C)CC(=O)N(Cc3ccccc3Cl)[C@@H]2c2ccc(CO)cc2)cc1 land among the classes by reported z-score? range 3

Where would Cc1ccc(S[C@]2(C(=O)NC3CC3)CC(=O)N(C3CCCCC3)[C@@H]2c2ccc(CO)cc2I)cc1 land among the classes by reported z-score? range 2

Where would COC(=O)[C@@]1(Cc2ccc(OC)cc2)[C@H]2c3cc(C(=O)N(C)C)n(Cc4c(OC)[nH]cc(C)c4=O)c3C[C@H]2CN1C(=O)c1ccccc1 land among the classes by reported z-score? range 1

Where would COCCOC(=O)N1C(=O)[C@@]2(c3cc(C#CC4=CCCCC4)ccc31)[C@H](C(=O)NC[C@H](O)c1ccccc1)[C@H]1C(=O)O[C@H](c3ccccc3)[C@H](c3ccccc3)N1[C@@H]2c1ccc(O)cc1 land among the classes by reported z-score? range 3

Where would CN1C(=O)C2C=CC(C(O)c3ccccn3)N(Nc3ccccc3)C2C1=O (stereo unspecified) land among the classes by reported z-score? range 1

Where would CN(C)CCCNC(=O)[C@@]1(Cc2ccccc2I)c2ccccc2C(=O)N(Cc2ccccc2C(F)(F)F)[C@H]1c1ccc(CO)cc1 land among the classes by reported z-score? range 1

Where would COc1ccc(CCNC(=O)[C@@]2(Sc3ccc(C)cc3)CC(=O)N(Cc3ccccc3Cl)[C@@H]2c2ccc(CO)cc2I)cc1 land among the classes by reported z-score? range 3

Where would C=CCOC(=O)[C@H]1[C@@H]2C(=O)O[C@@H](c3ccccc3)[C@@H](c3ccccc3)N2[C@@H](c2ccc(OCCOC(=O)[C@@H]3C[C@@H]4C(=O)NCC(=O)N4[C@@H]3c3ccc(O)cc3)cc2)[C@]12C(=O)Nc1ccccc12 land among the classes by reported z-score? range 3

Where would CCCCC=C[C@@H](NC(=O)c1cccs1)c1ccccc1 land among the classes by reported z-score? range 1

Where would [N-]=[N+]=NCc1ccccc1C[C@@]1(C(=O)N2CCOCC2)N=C(c2ccc(OCCCO)cc2)O[C@@H]1c1ccccc1CN=[N+]=[N-] land among the classes by reported z-score? range 1

Where would CC(C)C[C@@H]1NC(=O)[C@H]2C[C@@H](C(=O)NCCCCCNC(=O)CS)[C@@H](c3cccc(OCCO)c3)N2C1=O land among the classes by reported z-score? range 2

Where would O=C1N(CCS(=O)(=O)c2ccccc2)c2ccccc2C[C@@]12COC(c1ccc(OCCCO)cc1)=N2 land among the classes by reported z-score? range 1

----------
MEASUREMENT PROTOCOL: A549 lung cancer cell viability effects, profiling panel, resazurin fluorescence, 24 h, PK04 Diversity Set (AID 1171); note: test concentration not given here
CONDITION SET: higher = more signal, called active from +8 up or from −8 down
Use 0.8 as the dividing line for z-score, with the line itself on the true side and lower values as false.

Decide: is the reported value of z-score for COCCOC(=O)N1C(=O)[C@@]2(c3cc(C#CCNC(N)=O)ccc31)[C@H](c1ccc(O)cc1)N1[C@H](c3ccccc3)[C@H](c3ccccc3)OC(=O)[C@H]1[C@@H]2C(=O)NC[C@H](O)c1ccccc1 equal to or greater than 0.8? false

Decide: is the reported value of z-score for COc1ccc(C(O)C2C=CC3C(=O)N(c4ccccc4)C(=O)C3N2Nc2ccc([N+](=O)[O-])cc2)cc1OCc1ccccc1 (stereo not drawn) equal to or greater than 0.8? false

Decide: is the reported value of z-score for CC(C)c1ccc(NN2C(C(O)c3ccc(N(C)C)cc3)C=CC3C(=O)N(c4ccccc4)C(=O)C32)cc1 (stereo not drawn) equal to or greater than 0.8? false

Decide: is the reported value of z-score for COCCOC(=O)N1C(=O)[C@@]2(c3cc(C#CCC(C(=O)OC)C(=O)OC)ccc31)[C@H](c1ccccc1OCCO)N1[C@H](c3ccccc3)[C@H](c3ccccc3)OC(=O)[C@H]1[C@@H]2C(=O)N1CCc2cc(OC)c(OC)cc2C1 equal to or greater than 0.8? true

Decide: is the reported value of z-score for C=C(COC)/C(=C/C[C@H](OC(=O)c1ccncc1)c1cccc(OCCO)c1)c1cc(C(=O)OC)ccc1OC equal to or greater than 0.8? true

Decide: is the reported value of z-score for CN1C(=O)C2C(C1=O)C1C=C(CCCO)C2C(c2cccs2)N1C (stereo not drawn) equal to or greater than 0.8? false

Decide: is the reported value of z-score for CN1C=C(C(=O)OCCS(C)(=O)=O)C(C(=O)OCCS(C)(=O)=O)=CC(CCCO)=CC1C1CC1 (stereo not drawn) equal to or greater than 0.8? false

Decide: is the reported value of z-score for C[C@]1(C(=O)NCc2ccccc2)c2ccccc2C(=O)N(Cc2ccc(OC(F)(F)F)cc2)[C@H]1c1ccc(CO)cc1 equal to or greater than 0.8? true

Decide: is the reported value of z-score for COc1ccc([Si](C)(C)[C@H]2[C@H](CCn3cc([C@H](O)c4ccccc4)nn3)O[C@@]3(C(=O)N(Cc4cccc(N5CCC5=O)c4)c4ccccc43)[C@@H]2C)cc1 equal to or greater than 0.8? false

Decide: is the reported value of z-score for COc1ccc(C(O)C2C=CC3C(=O)N(C)C(=O)C3N2Nc2ccccc2)cc1OCc1ccccc1 (stereo not drawn) equal to or greater than 0.8? true

Decide: is the reported value of z-score for O=C1OCCC=C[C@H]2OC34C=CCN(c5ccc6ccccc6c5)C(=O)[C@H]3N(CCCCCO)C(=O)[C@@H]4C12 (stereo partly drawn) equal to or greater than 0.8? false

Decide: is the reported value of z-score for CCCNC(=O)[C@@]1(c2ccc([N+](=O)[O-])cc2)CC(=O)N(CC23CC4CC(CC(C4)C2)C3)[C@@H]1c1ccc(CO)cc1 equal to or greater than 0.8? false
